Source listed as patent US20030068675.

- target: ZFP SBS#324 (synthetic)
- Sequence (chain, as listed by the source): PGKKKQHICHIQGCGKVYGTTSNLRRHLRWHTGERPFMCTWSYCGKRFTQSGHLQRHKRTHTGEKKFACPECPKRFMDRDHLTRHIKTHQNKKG
- experiment_notes: EMSA
- condition_context: tags: MBP fusion
metric_name: Kd (nM)
State just the number; it will be interpreted in nM.

Recorded Kd for GGCGGAGAT (dsDNA) DNA 1: GGCGGAGAT DNA 2: ATCTCCGCC , please?
200
